observation.type: melting point

Entry `COc1cc2c(cc1OC)C1=NCCN1C(NC(=O)c1cncc(O)c1)=N2` : reported melting point = ? 287 °C (dec.)

Entry `Cl.O=C(O)CCc1ccc2c(c1)N=C(/C=C(\O)c1cccnc1)N1CCN=C21` : reported melting point = ? 273 °C (dec.)

Entry `O/C(=C\C1=Nc2ccccc2C2=NCCN12)c1ccccc1` : reported melting point = ? 130 to 139 °C

Entry `Cc1cc(C)cc(C(=O)NC2=Nc3ccccc3C3=NCCN23)c1` : reported melting point = ? 246 to 248 °C

Entry `COc1cc2c(cc1OC)C1=NCCN1C(/C=C(\O)c1ccc3[nH]cnc3c1)=N2` : reported melting point = ? 212 to 215 °C

Entry `Cl.O=C(NC1=Nc2cccc(Cl)c2C2=NCCN12)c1cccs1` : reported melting point = ? 227 °C

Entry `CN(C=O)c1ccc(C(=O)NC2=Nc3ccccc3C3=NCCN23)cc1.Cl` : reported melting point = ? 304 °C (dec.)

Entry `CC(=O)Nc1ccc(C(=O)NC2=Nc3c(Cl)cccc3C3=NCCN23)cn1.Cl` : reported melting point = ? > 280 °C

Entry `O=C(NC1=Nc2ccccc2C2=NCCN12)c1ccccc1.O=C(O)C(F)(F)F` : reported melting point = ? 238 to 242 °C

Entry `Cl.O=C(NC1=Nc2cc(C(F)(F)F)ccc2C2=NCCN12)c1cccnc1` : reported melting point = ? 275 °C

Entry `Cc1ncccc1C(=O)NC1=Nc2cc(Br)ccc2C2=NCCN12.Cl` : reported melting point = ? 252 °C (dec.)

Entry `O=C(NC1=Nc2ccc(O)cc2C2=NCCN12)c1cccnc1` : reported melting point = ? > 300 °C
